The measurements presented in this section are drawn from PubChem BioAssay.

- System Tested: NADPH oxidase 4 (Homo sapiens) (UniProt Q9NPH5)
- Sequence (Q9NPH5 whole entry, looked up): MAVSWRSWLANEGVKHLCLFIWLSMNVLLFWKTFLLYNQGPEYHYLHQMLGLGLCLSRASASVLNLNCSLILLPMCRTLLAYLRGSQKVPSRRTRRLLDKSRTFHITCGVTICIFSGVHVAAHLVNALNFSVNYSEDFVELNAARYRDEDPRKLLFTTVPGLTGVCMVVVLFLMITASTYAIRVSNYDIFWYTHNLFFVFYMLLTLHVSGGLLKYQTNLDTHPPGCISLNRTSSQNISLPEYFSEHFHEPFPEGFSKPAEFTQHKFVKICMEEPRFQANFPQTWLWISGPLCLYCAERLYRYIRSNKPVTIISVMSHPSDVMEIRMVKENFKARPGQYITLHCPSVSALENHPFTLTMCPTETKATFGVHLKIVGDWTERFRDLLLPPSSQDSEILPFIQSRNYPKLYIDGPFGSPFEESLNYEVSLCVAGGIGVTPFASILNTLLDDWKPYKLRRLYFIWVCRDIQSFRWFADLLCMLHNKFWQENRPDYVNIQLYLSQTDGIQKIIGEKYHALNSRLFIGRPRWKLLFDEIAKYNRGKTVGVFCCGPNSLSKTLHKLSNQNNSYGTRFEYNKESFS
- Test Name: NOX4-dependent H2O2 signal modulators, primary screen, NOX inhibitor project, cell-based, HEK293-NOX4, tetracycline-induced, Amplex Red fluorescence (AID 1160)
- Condition: 45 min, higher = more signal, called active from +8 up or from −8 down
The threshold is inclusive: z-score of exactly -0.8 counts as 1; values below receive 0.

Take a look at these entries with their results.
Molecule | System Tested | Discrete Label
O=C1[C@H]2[C@H]3[C@H](O)[C@H](O)CC(=NO[C@@H]4O[C@H](CO)[C@@H](O)[C@H](O)[C@H]4O)[C@@H]3CC[C@H]2C(=O)N1C[C@@H]1CCCO1 | NADPH oxidase 4 (Homo sapiens) (UniProt Q9NPH5) | 1
COC(=O)C(C(=O)OC)C1CCCC(=O)C1 (stereo not drawn) | NADPH oxidase 4 (Homo sapiens) (UniProt Q9NPH5) | 0
CCOC(=O)[C@H](Cc1ccccc1)NC(=O)CCC1CC(OC(=O)NCc2ccc3c(c2)OCO3)CC2(CCCC(COC(=O)NCCCN3CCCC3=O)O2)O1 (stereo partly drawn) | NADPH oxidase 4 (Homo sapiens) (UniProt Q9NPH5) | 1

Now turn to the next molecule.
I'd appreciate it if you could say whether `COc1ccc(O[C@H]2C=C[C@@H](c3ccccc3)O[C@@H]2CON=C(C)CCN2CCCc3nc(C)c(C)cc32)cc1` has z-score at least equal to -0.8.
1
